biological target: T1, Recombinant human EGFR protein (Active) (ab155639) (human, UniProt P00533 25-645, labelled with RED-tris-NTA 2nd Generation dye); assay: MST; RED-tris-NTA-labelled EGFR 25 nM, ligand in a 16-step 1:1 dilution series in PBS-T, 30 min at room temperature; assay concentration of the ligand 141 μM; settings: both partners purified
T1 construct: epidermal growth factor receptor (EGFR, ErbB-1), human, recombinant; also called EGF receptor; ErbB-1; source: bought: Abcam (ab155639), recombinant
measured-parameter: pKd
Numbers only, as −log10 of the molar value.

Problem: Quick one: pKd for VVGYIGERCQYRDL (EGF, human, residues 34-47; numbers count on: the mature protein; source: synthetic peptide (SPPS, Fmoc; crude, without preparative HPLC)) [EGF fragment 34–47 (VVGYIGERCQYRDL)] ?
Solution: 5.34
